experiment: duplex melting temperature (HRM, EvaGreen); higher = more stable duplex; details: duplex concentration 7.5 µM; backbone: PO-PO (both strands phosphodiester DNA)
experimental_endpoint: duplex melting temperature (°C)

>>> val("GAACCGTTGATGATCTC")
68.3
>>> val("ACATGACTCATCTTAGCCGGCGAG")
81.5
>>> val("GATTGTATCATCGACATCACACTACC")
76.9
>>> val("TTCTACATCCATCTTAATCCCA")
71.5
>>> val("AGAGCGCCCTGCTGCC")
79.8
>>> val("AGGAGTGAATGAAATGG")
65.7
>>> val("GTGAAACAATGCTGTAG")
66.1
>>> val("TACTTCCAACGTAGG")
63.5
>>> val("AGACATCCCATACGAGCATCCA")
78
>>> val("GCGGTTGGTGGCCAAC")
76
>>> val("TTAACCTGCAATGGATC")
66.6
>>> val("CCCAGGCCTCGGATTTA")
74.3
>>> val("CTTTTGTGCGGGTAGC")
69.3
>>> val("CGGCGCGCTG")
69.3
>>> val("GCTGAACTAACCACCA")
68.4
>>> val("CACAGCGACATGTATGG")
71.1
>>> val("TGCCATGTTGAAAACC")
66.6

---

experiment: duplex melting temperature (HRM, EvaGreen); higher = more stable duplex; conditions: duplex concentration 20 µM; backbone: PS-PS (both strands fully phosphorothioate)
A collection of sequences and their measured duplex melting temperature
experimental_endpoint: duplex melting temperature (°C)

>>> val("AGCACGGTGGTACAACA")
59.7
>>> val("CGACATGTATGGCACAG")
58.4
>>> val("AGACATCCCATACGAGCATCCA")
65.9
>>> val("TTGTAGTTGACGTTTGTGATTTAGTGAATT")
62.8
>>> val("CCCAGGCCTCGGATTTA")
65.4
>>> val("TTCGCGGTCTCCATTA")
62.6
>>> val("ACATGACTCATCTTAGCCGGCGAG")
70
>>> val("AATGTCGAACAGCAATT")
57.3
>>> val("CGTGTGGATAATTAGCT")
53.7
>>> val("TGCCATGTTGAAAACC")
52.9
>>> val("CTCAGAGTAGAGCCGA")
59.4
>>> val("CACAGCGACATGTATGG")
59.3
>>> val("ACGGGTCGTTCCGTG")
62.7
>>> val("TACTTCCAACGTAGG")
51.9
>>> val("CGTGCAGCACTACTTG")
59.7
>>> val("GAGCAGAAGGGGTTGT")
60.1
>>> val("AATGAGGAGTGAAATGG")
54.4

---

test: duplex melting temperature (HRM, EvaGreen); higher = more stable duplex; conditions: duplex concentration 15 µM; backbone: PS-PO (listed strand fully phosphorothioate, complement phosphodiester)
Listed sequences paired with reported duplex melting temperature
experimental_endpoint: duplex melting temperature (°C)

>>> val("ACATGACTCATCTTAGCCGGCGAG")
75.8
>>> val("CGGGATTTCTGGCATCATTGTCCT")
72.4
>>> val("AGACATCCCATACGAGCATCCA")
72.7
>>> val("GCTGAACTAACCACCA")
63.3
>>> val("TGCCATGTTGAAAACC")
61.4
>>> val("GAGGCAGCCGCGACCTG")
77.9
>>> val("CTCAGAGTAGAGCCGA")
66.5
>>> val("GGACGGCGTT")
61.1
>>> val("CAAGCCTCGATTTTGT")
62.2
>>> val("GTGGTACAAATGCGACC")
66.1
>>> val("CGACATGTATGGCACAG")
65.6
>>> val("AGAGCGCCCTGCTGCC")
74.8
>>> val("AGCACGGTGGTACAACA")
68.2
>>> val("CTTTTGTGCGGGTAGC")
65.1
>>> val("CTCGGAGGCCCCATTTA")
70
>>> val("GGTGGCGTTCTT")
60.4
>>> val("TTAACCTGCAATGGATC")
62.6
>>> val("AGGAGTGAATGAAATGG")
62.1
>>> val("CCGTTGCTGCTAGG")
65.4
>>> val("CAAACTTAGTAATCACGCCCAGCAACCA")
75.7
>>> val("TCTCGCGGTTCCATTA")
65.5
>>> val("TTCGCGGTCTCCATTA")
66.7
>>> val("CGATTTTGTCAAGCCT")
60.9
>>> val("CCCAGGCCTCGGATTTA")
70
>>> val("ATAACTTACTCTCGCCT")
62.2
>>> val("TGTCGCACCCTACTA")
65.4
>>> val("CCGCTCAGAGTAGAGA")
65
>>> val("CTAAACTGTTATAGCCGG")
63.7
>>> val("ACTCGCTCTACCTTAAT")
61.2
>>> val("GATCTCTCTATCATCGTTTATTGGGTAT")
67.6
>>> val("GGTTGCGGTGGCCAAC")
61.5
>>> val("AATGTCGAACAGCAATT")
64.5
>>> val("GATGCCGCAGCGACCTG")
75.6
>>> val("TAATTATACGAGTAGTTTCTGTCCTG")
67.4
>>> val("CGCGCGAGTATTTATAACCT")
67.9
>>> val("TAGACGCGGCCTCTTTCC")
73.3
